# target-under-test: MMP-13 (Homo sapiens)
# protocol: MMP-13 inhibition (thiopeptide or fluorescent peptide substrate)
# Assay type: biochemical
# experimental-parameters: read-out: MMP-13 IC50
pIC50: −log10 of the molar value. Counter-ions that a name gives are not always drawn.
measured-endpoint: pIC50

* CC#CCOc1ccc(S(=O)(=O)NC(C(=O)NO)C(C)(C)SCc2ccccc2)cc1 (stereo not shown) | 8.08

(I) CC#CCOc1ccc(S(=O)(=O)N(C)C(CSCc2cccnc2)C(=O)NO)cc1 (stereo not shown)
(II) CC#CCOc1ccc(S(=O)(=O)N(C)C(C(=O)NO)C(C)(C)SCCN2CCOCC2)cc1 (stereo not shown) [Example 140, Hydrochloride]
(III) CC#CCOc1ccc(S(=O)(=O)N(C)[C@@H](C(=O)NO)c2ccc(O[C@H]3CCNC3)cc2)cc1
Q) Arrange these compounds by their pIC50, starting with the largest number. Answer format: list of labels, ordered as asked.
A) I, II, III
